- Tested on: EV-D68
- protocol: microbe, parasite or virus in culture
- Type: cell-based, enterovirus D68
- experimental context: Enterovirus D, EVD68, HeLa R19, read-out: EC50 Average
observed property: EC50 (nM)

> print(dat)
                                   compound  system  observed.property  assay.value
1  COc1ccc(N(Cc2ccc(F)cc2)C(=O)c2cc[nH]c2)cc1 [Compound 12a]  EV-D68               EC50         1250
2  Cc1ccc(CN(C(=O)c2ccco2)c2ccccc2)cc1 [Compound 19g]  EV-D68               EC50         1480
3  O=C(c1ccco1)N(Cc1ccc(F)cc1)c1ccccc1 [Compound 19b]  EV-D68               EC50          830
